biological target: human GAL9 of the human PBMC cultures (human); assay: cell-based or functional assay
measurement kind: INF-γ 72 hr, Fold change, as %
# number then unit; no other words

| binder | endpoint value |
| --- | --- |
| P9-34 (antibody, IgG1, V domains shown) VH: EVQLVESGGGLVQPGGSLRLSCAASGFTFSTYFIHWVRQAPGKGLEWVAYIYPQGGYTYYADSVKGRFTISADTSKNTAYLQMNSLRAEDTAVYYCARQSYPGVFDYWGQGTLVTVSS VL: DIQMTQSPSSLSASVGDRVTITCRASQSVSSAVAWYQQKPGKAPKLLIYSASSLYSGVPSRFSGSRSGTDFTLTISSLQPEDFATYYCQQWTIALTTFGQGTKVEIKR | 87.6% |
| P9-37 (antibody, IgG1, V domains shown, Tested as bivalent monospecific native human full-length IgG1; also called ABS clone P9-37) VH: EVQLVESGGGLVQPGGSLRLSCAASGFTFWKYGIHWVRQAPGKGLEWVAYIYPAGGITSYADSVKGRFTISADTSKNTAYLQMNSLRAEDTAVYYCARSDYYSGMGMDYWGQGTLVTVSS VL: DIQMTQSPSSLSASVGDRVTITCRASQSVSSAVAWYQQKPGKAPKLLIYSASSLYSGVPSRFSGSRSGTDFTLTISSLQPEDFATYYCQQYYPSPSTFGQGTKVEIKR | 54.6% |
| P9-24 (antibody, IgG1, V domains shown, Tested as bivalent monospecific native human full-length IgG1; also called ABS clone P9-24) VH: EVQLVESGGGLVQPGGSLRLSCAASGFTFSSYFIHWVRQAPGKGLEWVASIYPTSHSTSYADSVKGRFTISADTSKNTAYLQMNSLRAEDTAVYYCARLGYPGVMDYWGQGTLVTVSS VL: DIQMTQSPSSLSASVGDRVTITCRASQSVSSAVAWYQQKPGKAPKLLIYSASSLYSGVPSRFSGSRSGTDFTLTISSLQPEDFATYYCQQVDSRLATFGQGTKVEIKR | 87.6% |

Lab note: next binder to report on.
# return recorded INF-γ 72 hr, Fold change, as % for entry P9-11 (antibody, IgG1, V domains shown, Tested as bivalent monospecific native human full-length IgG1; also called ABS clone P9-11) VH: EVQLVESGGGLVQPGGSLRLSCAASGFTFSSYYIHWVRQAPGKGLEWVAYISPSGGYTYYADSVKGRFTISADTSKNTAYLQMNSLRAEDTAVYYCARGAVLYSSAMDYWGQGTLVTVSS VL: DIQMTQSPSSLSASVGDRVTITCRASQSVSSAVAWYQQKPGKAPKLLIYSASSLYSGVPSRFSGSRSGTDFTLTISSLQPEDFATYYCQQYYPSPSTFGQGTKVEIKR 68.2%
